Hello, the source for this data is ChEMBL document CHEMBL2157912, in case you need it.

Tested on: Plasmodium falciparum
Assay: Inhibition of recombinant Plasmodium falciparum falcipain 2 at 10 uM preincubated for 10 mins before addition of Z-Phe-Arg-AMC substrate by fluorescence spectrophotometry
Decide using inhibition: a value greater than or equal to 40% is class 1, a smaller one is class 0.

> print(dat)
                                  cpd.smiles  class.name
 1          O=C(NCCc1cccs1)Nc1cnc2ccccn2c1=O     class 1
 2    O=C(NCc1ccc2c(c1)OCO2)c1cnc2ccccn2c1=O     class 0
 3               COCCNC(=O)Nc1cnc2ccccn2c1=O     class 0
 4          O=C(Nc1cnc2ccccn2c1=O)OCc1ccccc1     class 0
 5  Cc1ccn2c(=O)c(NC(=O)N3CCN(C(c4ccccc4)c4ccccc4)CC3)cnc2c1     class 0
 6            COCCNC(=O)Nc1cnc2cc(C)ccn2c1=O     class 1
 7  COc1ccc(N2CCN(C(=O)Nc3cnc4ccc(Cl)cn4c3=O)CC2)cc1     class 0
 8  Cc1ccn2c(=O)c(NC(=O)N3CCN(c4ccccn4)CC3)cnc2c1     class 0
 9     Cc1ccn2c(=O)c(NC(=O)NCCc3cccs3)cnc2c1     class 1
10  O=C(Nc1cnc2ccccn2c1=O)N1CCN(c2ccccn2)CC1     class 1
11     Cc1ccn2c(=O)c(NC(=O)OCc3ccccc3)cnc2c1     class 0
12          O=C(Nc1cnc2ccccn2c1=O)OCc1ccccn1     class 0
13   Cc1ccn2c(=O)c(C(=O)NCc3ccc(F)cc3)cnc2c1     class 0
14       CC(=O)NCCNC(=O)Nc1cnc2cc(C)ccn2c1=O     class 0
15    Cc1ccn2c(=O)c(NC(=O)NCCN3CCOCC3)cnc2c1     class 0
16  O=C(NCc1ccc2c(c1)OCO2)c1cnc2ccc(Cl)cn2c1=O     class 0
17      COc1ccc(CNC(=O)Nc2cnc3ccccn3c2=O)cc1     class 0
18      O=C(NCCc1cccs1)Nc1cnc2ccc(Cl)cn2c1=O     class 1
19     Cc1ccn2c(=O)c(NC(=O)OCc3ccccn3)cnc2c1     class 1
20  COc1ccc(N2CCN(C(=O)Nc3cnc4cc(C)ccn4c3=O)CC2)cc1     class 1
21          CC(=O)NCCNC(=O)Nc1cnc2ccccn2c1=O     class 1
22  COc1ccc(N2CCN(C(=O)Nc3cnc4ccccn4c3=O)CC2)cc1     class 1
23     O=C(NCCN1CCOCC1)Nc1cnc2ccc(Cl)cn2c1=O     class 1
24        O=C(NCCCN1CCOCC1)Nc1cnc2ccccn2c1=O     class 0
